Here the recorded nuclear beta-catenin stimulation is given for each entry.
Assay Summary: Wnt pathway potentiators raising nuclear beta-catenin – imaging, WNT3A-conditioned medium, mouse C2C12, NPC library, primary screen (AID 1117326)
Applied Conditions: at 10 µM, stronger effect = higher value
Numeric answer only, unit % assumed.

                          molecule             experimental_endpoint  test_result
0  COc1ccc(CN(CCN(C)C)c2ccccn2)cc1  nuclear beta-catenin stimulation          0.1

Exercise: Consider the molecule "O=C(Cn1ccnc1[N+](=O)[O-])NCCO" and give its measured nuclear beta-catenin stimulation.
Solution: -1.8

Exercise: Data request, read-out nuclear beta-catenin stimulation, for "CC1(C)S[C@@H]2[C@H](N=CN3CCCCCC3)C(=O)N2[C@H]1C(=O)O"
Solution: 0.4

Exercise: Consider the molecule shown here: "Brc1c(NC2=NCCN2)ccc2nccnc12" What is its recorded nuclear beta-catenin stimulation?
Solution: 0.3

Exercise: Need nuclear beta-catenin stimulation, item "NC(N)=NC(=O)Cc1c(Cl)cccc1Cl"
Solution: -0.4

Exercise: // lookup nuclear beta-catenin stimulation for "NC/C=C/C(=O)O"
Solution: 0.3

Exercise: Reported nuclear beta-catenin stimulation, molecule "O=c1[nH]cnc2c1ncn2[C@@H]1O[C@H](CO)[C@@H](O)[C@H]1O" : ____
Solution: -1

Exercise: Could you share which nuclear beta-catenin stimulation value was measured for COc1ccccc1OCC(O)CO (centres undefined) ?
Solution: 1.9

Exercise: Please report the recorded nuclear beta-catenin stimulation for "CCCCC(=O)O[C@]1(C(=O)CO)[C@@H](C)C[C@H]2[C@@H]3CCC4=CC(=O)C=C[C@]4(C)[C@@]3(F)[C@@H](O)C[C@@]21C" .
Solution: 2.9

Exercise: Given the molecule "C#CCN[C@@H]1CCc2ccccc21" , what is its reported nuclear beta-catenin stimulation?
Solution: 0.9

Exercise: Fill in: nuclear beta-catenin stimulation of "C#C[C@]1(O)CC[C@H]2[C@@H]3CCc4cc(OC)ccc4[C@H]3CC[C@@]21C" is ___
Solution: 3.3

====

Assay Summary: Wnt pathway potentiators raising nuclear beta-catenin – imaging, WNT3A-conditioned medium, mouse C2C12, NPC library, primary screen (AID 1117326)
Applied Conditions: stimulation, at 2 µM, stronger effect = higher value
Experimental Endpoint: nuclear beta-catenin stimulation (%)
Supply the numeric figure in %, leaving out any unit text.

# example entries with known answers
>>> df
                                item_smiles  test_result
0                      CC(C)NNC(=O)c1ccncc1         -0.3
1  CCOc1ccc(Cc2nccc3cc(OCC)c(OCC)cc23)cc1OCC          7.1
2  C[C@]12C=CC(=O)C=C1CC[C@H]1[C@@H]3C[C@@H](O)[C@](O)(C(=O)CO)[C@@]3(C)C[C@H](O)[C@@]12F         -0.2
3  C[C@@H]1CN(c2c(F)c(N)c3c(=O)c(C(=O)O)cn(C4CC4)c3c2F)C[C@H](C)N1         -1.1
4                 Nc1ccc(N=Nc2ccccc2)c(N)n1          3.5

Exercise: Recorded nuclear beta-catenin stimulation for "CNC[C@H](O)c1cccc(O)c1" , please?
Solution: 1.7

Exercise: Which nuclear beta-catenin stimulation reading was recorded for the compound "COc1cnc(NS(=O)(=O)c2ccc(N)cc2)nc1" ?
Solution: 2

Exercise: Consider the compound shown here: "NC(=O)N/N=C/c1ccc([N+](=O)[O-])o1" What is its recorded nuclear beta-catenin stimulation?
Solution: 2

Exercise: Look up nuclear beta-catenin stimulation: "C#C[C@]1(O)CC[C@H]2[C@@H]3[C@H](C)CC4=C(CCC(=O)C4)[C@H]3CC[C@@]21C"
Solution: 0.8

Exercise: Reported nuclear beta-catenin stimulation, compound "CC(=O)OCC(COC(C)=O)OC(C)=O" : ____
Solution: 3.4

Exercise: Would you kindly share the measured nuclear beta-catenin stimulation for "NCCS" ?
Solution: 3.8

====

Assay Summary: viability loss with induced miR-34 in A549 – imaging, A549 dox-inducible miR-34, nuclei and caspase counts, primary screen (AID 1347080)
Applied Conditions: A549 miR-34 inducible, Hoechst nuclei count, 48 h; measured here: relative caspase fold change +Dox/-Dox
Label 1 when fold change is strictly below 2; at or above that, label 0.

// known answers, use as guide
In [3]: df
Out[3]:
                        item_smiles  qualitative_label
0    COc1cc(C)c(Cc2cnc(N)nc2N)cc1OC                  1
1  O=C1c2cccc(O)c2C(=O)c2c(O)cccc21                  0
2                          CC(=O)NO                  1
3  CN1CCC(=C2c3ccccc3Sc3ccccc32)CC1                  1

Okay, now this molecule:
Exercise: Dear reviewer, please state whether "CC[C@]12CCCN3CCc4c(n(c5ccccc45)C(=O)C1)[C@@H]32" has fold change strictly beneath 2.
Solution: 1

====

Tgt: NAD(+) hydrolase SARM1 (Homo sapiens) (UniProt Q6SZW1)
Sequence (Q6SZW1 whole entry, looked up): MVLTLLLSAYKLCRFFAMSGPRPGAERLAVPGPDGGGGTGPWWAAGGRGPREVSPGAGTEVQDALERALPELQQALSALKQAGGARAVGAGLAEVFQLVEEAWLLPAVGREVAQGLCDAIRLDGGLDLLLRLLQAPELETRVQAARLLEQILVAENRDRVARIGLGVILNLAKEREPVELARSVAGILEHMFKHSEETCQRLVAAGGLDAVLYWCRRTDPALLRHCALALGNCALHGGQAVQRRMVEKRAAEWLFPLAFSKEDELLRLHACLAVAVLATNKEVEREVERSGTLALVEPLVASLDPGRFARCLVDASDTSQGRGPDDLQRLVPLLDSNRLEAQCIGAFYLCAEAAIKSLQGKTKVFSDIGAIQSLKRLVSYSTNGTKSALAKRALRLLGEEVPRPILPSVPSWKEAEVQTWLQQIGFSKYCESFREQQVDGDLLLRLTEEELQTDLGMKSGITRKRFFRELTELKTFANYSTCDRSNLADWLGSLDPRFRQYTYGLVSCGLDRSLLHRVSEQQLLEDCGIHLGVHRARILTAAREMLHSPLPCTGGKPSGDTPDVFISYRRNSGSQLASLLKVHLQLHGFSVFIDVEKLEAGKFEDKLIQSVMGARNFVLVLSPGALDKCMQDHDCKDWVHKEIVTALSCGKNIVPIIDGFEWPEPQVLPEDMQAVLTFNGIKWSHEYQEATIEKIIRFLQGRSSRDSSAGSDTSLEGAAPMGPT
Assay Summary: blocking NAD cleavage by SARM1 SAM-TIR – cell lysate, NAD-Glo luminescence (AID 1508614);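 also: higher remaining NAD means stronger inhibition of SARM1 NADase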
Applied Conditions: SAM-TIR HEK293T lysate NADase, at 1 µM
The source made the active and inactive calls.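 The calls were made as follows: active = compound whose remaining NAD level is above about 45 nM (limit read from the data); inactive = the rest.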
Please answer using one outcome listed in active, inactive

Molecule	Qualitative Label
COc1ccc(CCN2CCC(Nc3nc4ccccc4n3Cc3ccc(F)cc3)CC2)cc1	inactive
O=C(OCc1ccccc1)c1ccccc1	inactive
CCN1CCCC(OC(=O)C(c2ccccc2)c2ccccc2)C1 (centres undefined)	inactive
CN1CCN(C2=Nc3ccccc3Oc3ccc(Cl)cc32)CC1	inactive
NC(=O)NC(=O)Cc1ccccc1	inactive

Exercise: Recorded call for "Nc1nc(N)nc(-c2cc(Cl)ccc2Cl)n1" ?
Solution: inactive

====

# nuclear beta-catenin stimulation annotations
Assay Summary: Wnt pathway potentiators raising nuclear beta-catenin – imaging, WNT3A-conditioned medium, mouse C2C12, NPC library, primary screen (AID 1117326)
Applied Conditions: at 10 µM, stronger effect = higher value
Answer format: numeric, % implied, no suffix.

# annotated cases, reported nuclear beta-catenin stimulation shown
Molecule	Experimental Endpoint	Test Result
Cc1cccc(C)c1NC(=O)C(C)N (centres undefined)	nuclear beta-catenin stimulation	0.2
COc1ccccc1OCC(O)CN1CCN(CC(=O)Nc2c(C)cccc2C)CC1 (centres undefined)	nuclear beta-catenin stimulation	2.5
CC(N)C(=O)OC(C)(C)Cc1ccc(Cl)cc1 (centres undefined)	nuclear beta-catenin stimulation	8
C[C@@H]1CN(c2c(F)c(F)c3c(=O)c(C(=O)O)cn(C4CC4)c3c2F)C[C@H](C)N1	nuclear beta-catenin stimulation	-0.9
CC(C)(C)NC(=O)[C@H]1CC[C@H]2[C@@H]3CC[C@H]4NC(=O)C=C[C@]4(C)[C@H]3CC[C@]12C	nuclear beta-catenin stimulation	5.2

Exercise: What value of nuclear beta-catenin stimulation has been recorded for this entry: "CN1C(C(=O)Nc2ccccn2)=C(O)c2sccc2S1(=O)=O"
Solution: 0.8

Exercise: Please report the recorded nuclear beta-catenin stimulation for "CC(=O)[C@]1(O)Cc2c(O)c3c(c(O)c2[C@@H](O[C@H]2C[C@H](N)[C@H](O)[C@H](C)O2)C1)C(=O)c1ccccc1C3=O" .
Solution: 18.6

Exercise: Would you mind telling me what nuclear beta-catenin stimulation value was observed for "CCN(CC)Cc1cc(Nc2ccnc3cc(Cl)ccc23)ccc1O" ?
Solution: 0.5

Exercise: Which value of nuclear beta-catenin stimulation has been reported for "CC[N+](CC)(CC)CCOc1cccc(OCC[N+](CC)(CC)CC)c1OCC[N+](CC)(CC)CC" in the records?
Solution: -0.5

Exercise: What value of nuclear beta-catenin stimulation has been reported for the following molecule? "NC(=O)NO"
Solution: -0.1

Exercise: Which nuclear beta-catenin stimulation value belongs to CC(=O)OC(C)C[N+](C)(C)C (centres undefined) ?
Solution: 1.5

====

Assay Summary: restoration of touch response, mutant HTT neurons – whole organism, C. elegans mechanosensory neurons, N-terminal huntingtin (AID 1599)
Applied Conditions: C. elegans polyQ-huntingtin mechanosensory neurons, stronger effect = higher value
Results with a measured potency or affinity are listed apart.
I would appreciate it if you labelled entries yes when rescue above control is 1 or higher, otherwise no.

Worked examples follow.
In [3]: df
Out[3]:
                                   compound  qualitative_label
0                      O=c1cc[nH]c(=S)[nH]1                yes
1  C=CCc1ccccc1OCC(O)CNC(C)C (stereo not given)                yes
2                           NC(=O)c1ccccc1O                yes
3  CS(=O)(=O)c1ccc([C@@H](O)[C@@H](CO)NC(=O)C(Cl)Cl)cc1                 no

Moving on to another compound below.
Exercise: For this compound, is measured rescue above control 1 or higher? "CCCCN(CCCC)CCCOC(=O)c1ccc(N)cc1"
Solution: no
